PROCEDURE_TEXT: Probe fluorescence ratio response to linolenic acid relative to ADIFAB2
Type: binding
STUDY_CONDITIONS: response relative to ADIFAB2
READOUT: DR/DR LNA

[[record]]
molecule = "23Y1, 72A (protein, listed as Rattus norvegicus, PEPTIDE (1)...(131) wild-type rat intestinal fatty acid binding protein) AFDGTWKVDRNENYEKFMEKMGYNVVKRKLGAHDNLKLTITQEGNKFTVKESSNFRNIDVVFELGVDFAYSAADGTELTGTWTMEGNKLVGKFKRVDNGKELIAVREISGNELIQTYTYEGVEAKRIFKKE"
result = 0.44

[[record]]
molecule = "102Q, 72A (protein, listed as Rattus norvegicus, PEPTIDE (1)...(131) wild-type rat intestinal fatty acid binding protein) AFDGTWKVDRNENYEKFMEKMGINVVKRKLGAHDNLKLTITQEGNKFTVKESSNFRNIDVVFELGVDFAYSAADGTELTGTWTMEGNKLVGKFKRVDNGKEQIAVREISGNELIQTYTYEGVEAKRIFKKE"
result = 0.71

[[record]]
molecule = "14L, 72A (protein, listed as Rattus norvegicus, PEPTIDE (1)...(131) wild-type rat intestinal fatty acid binding protein) AFDGTWKVDRNENLEKFMEKMGINVVKRKLGAHDNLKLTITQEGNKFTVKESSNFRNIDVVFELGVDFAYSAADGTELTGTWTMEGNKLVGKFKRVDNGKELIAVREISGNELIQTYTYEGVEAKRIFKKE"
result = 0.93

